# Test system: HepG2-A16-CD81EGFP cells
# method_summary: cells
# condition: Homo sapiens, HepG2, read-out: HepG2 Tox% @ 50 uM rep1
Just a reminder that ties go to not met: only cytotoxicity at 50 µM strictly below 20% counts as met.

Determine whether this compound shows cytotoxicity at 50 µM lower than 20% (ties excluded): O=C(Nc1ccc(-c2nc3cc(NC(=O)c4ccc(Cl)cc4)ccc3[nH]2)cc1)c1ccc(Cl)cc1
not met

Determine whether this compound shows cytotoxicity at 50 µM lower than 20% (ties excluded): CCn1nc(-c2ccc(C(=O)OC)cc2)nc2c(=O)n(C)c(=O)nc1-2
not met

Determine whether this compound shows cytotoxicity at 50 µM lower than 20% (ties excluded): Cc1cc(NC(=O)C2c3ccccc3C(=O)N(CC(C)C)C2c2cccs2)no1 (centres unmarked)
met

Determine whether this compound shows cytotoxicity at 50 µM lower than 20% (ties excluded): COc1ccc2c(c1OC)C(=O)N1c3ccccc3N=C(c3ccc(C)cc3)CC21 (centres unmarked)
met

Determine whether this compound shows cytotoxicity at 50 µM lower than 20% (ties excluded): Cc1ccc(-c2cc3nc4c(c(O)n3n2)CCCC4)cc1
met

Determine whether this compound shows cytotoxicity at 50 µM lower than 20% (ties excluded): CCc1ccc(Nc2cc(C)nc3nc(C)nn23)cc1
met

Determine whether this compound shows cytotoxicity at 50 µM lower than 20% (ties excluded): N#Cc1nc(Cc2cccc3ccccc23)oc1N1CCN(C(c2ccccc2)c2ccccc2)CC1
met

Determine whether this compound shows cytotoxicity at 50 µM lower than 20% (ties excluded): CN1CCN(c2ncnc3c2[nH]c2ccc(Cl)cc23)CC1
not met

Origin of values: paper PMC4890880
